- System: CDK8
- Details: concentration: 1 μM, replicates: in singlicate; n = 1;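 note: KINOMEscan kinase panel screen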
Recorded %Inh for the following compounds

Ask | What value of %Inh has been reported for the following compound? Cl.NC(=O)c1cccc(Nc2nccc(Nc3ccc(Oc4c(Cl)cccc4Cl)c(Cl)c3)n2)c1
Reply | 18%

Ask | Another compound to check: CNC(=O)c1ccccc1Nc1nc(Nc2ccc(N3CCOCC3)cc2)ncc1Cl.Cl
Reply | 1%

Ask | Would you mind doing COc1cccc(C(=O)Nc2cccc(Oc3ccc4nc(NC(=O)C5CC5)cn4n3)c2)c1 as well?
Reply | 38%

Ask | Subsequent entry: CN(C)Cc1ccc(-c2ccc3c(Nc4ccc(Oc5ccccn5)cc4)ccnc3c2)o1
Reply | 4%

Ask | Another compound to check: O=c1[nH]cc(-c2ccc(N3CCOCC3)cc2)c2sc(-c3cn[nH]c3)cc12
Reply | 0%

Ask | Next record, please: NCCCC(NC(=O)c1cc(Br)c(-c2ccnc3[nH]ccc23)s1)c1ccccc1.O=C(O)C(F)(F)F.O=C(O)C(F)(F)F (centres unmarked)
Reply | 27%

Ask | Can you check COCCOCCOc1cc2ncc3c4ccc(C#N)cc4[nH]c3c2cc1OC next?
Reply | 1%

Ask | Consider next the compound COc1cccc(C2=C(Nc3ccc(Cl)c(C(=O)O)c3)C(=O)NC2=O)c1 in the same way.
Reply | 0%

###

- Tested on: MARK1
- Details: concentration: 1 μM, replicates: in singlicate; n = 1
Measurement Label: %Inh (%)
Dear colleague, please return just the value in %, with no unit written.

Ask | Look up %Inh: CN1CCN(CCCNc2nccc(-c3c(-c4ccc(F)cc4)nn4cc(C(F)(F)F)ccc34)n2)CC1
Reply | 7

Ask | Same thing, different molecule: COC(=O)Nc1nc2ccc(Oc3ccc(NC(=O)Nc4cc(C(F)(F)F)ccc4F)cc3)cc2n1C.Cl
Reply | 0

Let us move to another entry and its %Inh.
Ask | Which %Inh value belongs to Cl.c1ccc(-c2ccc3c(Nc4ccc5[nH]ccc5c4)ccnc3c2)nc1 ?
Reply | 0

###

Listed molecules paired with reported %Inh
- Tested on: PIK3CA
- Details: concentration: 1 μM, replicates: in singlicate; n = 1
Express it in %; write the number only.

Ask | Given the entry O=C(Nc1cccc(Oc2ccc3nc(NC(=O)C4CC4)cn3n2)c1)c1ccccc1C(F)(F)F , what %Inh was observed with PIK3CA?
Reply | 0

Ask | // same read-out, input: CC(=O)N1CCN(c2ccc(Nc3nccc(-c4sc(C(C)C)nc4-c4cccc(NS(=O)(=O)c5cccc(Cl)c5)c4)n3)cn2)CC1
Reply | 0

Ask | Further, for Cc1ccc(C(=O)Nc2ccc(Nc3ccnc4cc(-c5nccs5)ccc34)cc2O)cc1.Cl ?
Reply | 0

Ask | Same read-out for Cn1cc(-c2ccc3c(c2)CCN3C(=O)Cc2cccc(Cl)c2)c2c(N)ncnc21 ?
Reply | 0

Ask | Query COc1ccc(Nc2nccc(N3CCC(NC(=O)Nc4cccc(OC)c4)C3)n2)cc1 (stereo not shown) next
Reply | 0

More entries:
Ask | Write down the reported %Inh of O=C(O)C(F)(F)F.O=C(O)C(F)(F)F.O=c1[nH]ccc2nc(N[C@@H]3CCCNC3)nc(Nc3ccc(S(=O)(=O)N4CCOCC4)cc3)c12 , test system: PIK3CA.
Reply | 0

###

Readings of %Inh for the listed compounds
- System: MYO3B
- Details: concentration: 1 μM, replicates: in singlicate; n = 1
Write the answer as a number in %, unit excluded.

Ask | Which %Inh reading was recorded for the compound c1ccc(Oc2ccc(Nc3ccnc4cc(-c5ccc(CNCCN6CCOCC6)o5)ccc34)cc2)nc1 [GW567145] ?
Reply | 0

Ask | Same read-out for Clc1ccc(-c2nn3ncccc3c2-c2ccnc(Nc3ccc4c(c3)OCCO4)n2)cc1 [GW829116] ?
Reply | 1

Ask | Next compound up: Cl.NC(=O)c1cccc(Nc2nccc(Nc3ccc(Oc4c(Cl)cccc4Cl)c(Cl)c3)n2)c1 [GW659009]
Reply | 0

Here's the next entry for you.
Ask | // query %Inh value for entry Cl.c1ccc(-c2ccc3c(Nc4ccc5[nH]ncc5c4)ccnc3c2)nc1 [GW440137]
Reply | 0

###

Measured %Inh, listed per entry for reference.
- Test system: GRK1
- Details: concentration: 1 μM, replicates: in singlicate; n = 1
# value in %; strip the unit string

Consider the following illustrative entries.
Ask | # %Inh lookup, item COC(=O)Nc1nc2cc(Oc3ccc(NC(=O)Nc4cc(C(F)(F)F)ccc4F)cn3)ccc2[nH]1.Cl.Cl
Reply | 0

Ask | What about this compound? COc1ccc(Nc2nccc(N3CCC(NC(=O)Nc4cccc(OC)c4)C3)n2)cc1 (centres unmarked)
Reply | 0

Ask | Lookup Oc1cc(Nc2ccnc3cc(I)ccc23)ccc1F
Reply | 0

Ask | For Cc1ccc(S(=O)(=O)Nc2ccc(Nc3nccc(Nc4cccc5[nH]ncc45)n3)cc2)cc1 then?
Reply | 0

Ask | Now consider COc1cc(Nc2ncc3c(C)nc(-c4cc5ccccc5[nH]4)n3n2)cc(OC)c1OC .
Reply | 0

***
Ask | What value of measured %Inh is listed for FC(F)(F)c1ccc(/C=C/c2cncnc2Nc2ccc3[nH]c(Cc4ccccc4)nc3c2)cc1 ?
Reply | 11

Ask | # iterate: Cn1cc(-c2ccc3c(c2)CCN3C(=O)Cc2cccc(Cl)c2)c2c(N)ncnc21
Reply | 5

Ask | Similarly, O=C(Nc1ccccc1F)NC1CCN(c2ccnc(Nc3ccc(F)cc3)n2)CC1 ?
Reply | 0

Ask | // next record c1ccc(-c2n[nH]cc2Nc2ccnc3ccccc23)nc1
Reply | 7

###

- System: ZAP70
- Details: concentration: 1 μM, replicates: in singlicate; n = 1
Measurement Label: %Inh (%)
Value expressed in %; do not type the unit.

Solved cases below.
Ask | // query %Inh value for entry COc1ccc(Nc2nccc(N3CCC(NC(=O)Nc4cccc(OC)c4)C3)n2)cc1 (centres unmarked)
Reply | 3

Ask | How about Cl.c1ccc(-c2ccc3c(Nc4ccc5[nH]ncc5c4)ccnc3c2)nc1 ?
Reply | 24

API: the following record is the query input.
Ask | Name the reported %Inh value associated with the compound C[C@@H](Oc1cc(-n2cnc3cc(-c4ccnc(NCCS(C)(=O)=O)c4)ccc32)sc1C(N)=O)c1ccccc1Cl
Reply | 0

###

- Tested on: MARK1
- Details: concentration: 1 μM, replicates: in singlicate; n = 1
Measurement Label: %Inh (%)
Write the answer as a number in %, unit excluded.

Sample answers from the record:
Ask | Bench note: what %Inh did COc1cc(Nc2nccc(-c3c(-c4cccc(NC(=O)c5c(F)cccc5F)c4)nn4ccccc34)n2)cc(OC)c1OC show?
Reply | 6

Ask | Repeat for the following compound: O=C(Nc1cccc(-c2nn3ncccc3c2-c2ccnc(Nc3ccccc3)n2)c1)c1c(F)cccc1F
Reply | 0

Ask | Let us now turn to COc1ccc(Nc2nccc(N3CCC(NC(=O)Nc4cccc(OC)c4)C3)n2)cc1 (stereo not shown)
Reply | 0

We next turn to a different compound, shown below.
Ask | Please look up its %Inh: CC(C)c1nc(-c2cccc(NS(=O)(=O)c3c(F)cccc3F)c2F)c(-c2ccnc(Nc3ccc(N4CCOCC4)nc3)n2)s1
Reply | 0

###

- Test system: PRKG1
- Details: concentration: 1 μM, replicates: in singlicate; n = 1
Examples of compounds with documented %Inh follow.
Kindly answer with a numeric value in %, unit omitted.

Some solved entries appear below for comparison.
Ask | GET /values?readout=%Inh&item= Cc1ccc(S(=O)(=O)Nc2ccc(Nc3nccc(Nc4cccc5[nH]ncc45)n3)cc2)cc1 [GSK581271]
Reply | 0

Ask | For Cl.Cl.NCC(C(=O)Nc1cc(Br)c(-c2ccnc3[nH]ccc23)s1)c1ccccc1 (stereo not shown) [GSK1269851] then?
Reply | 94.6

Ask | What do we get for O=C(Nc1n[nH]c2cc(-c3ccoc3)ccc12)C1CC1 [SB-738481] ?
Reply | 0

Okay, now this compound:
Ask | Which %Inh reading was recorded for the compound FC(F)(F)c1ccc(/C=C/c2cncnc2Nc2ccc3[nH]c(Cc4ccccc4)nc3c2)cc1 [GW709199] ?
Reply | 0

###

- Test system: LIMK1
- Details: concentration: 1 μM, replicates: in singlicate; n = 1
Below, each entry is listed with its recorded %Inh.
Respond numerically; units are % and should not be typed.

Field: example entries. Status: answers known.
Ask | Could you share what %Inh was measured for O=C(Nc1cccc(-c2nn3ccccc3c2-c2ccnc(Nc3cccc(F)c3)n2)c1)c1c(F)ccc(F)c1Cl , tested on LIMK1?
Reply | 43

Ask | How about COc1cccc(C2=C(Nc3ccc(Cl)c(C(=O)O)c3)C(=O)NC2=O)c1 ?
Reply | 13

Ask | Another: Nc1ncc(-c2cccnc2)c2scc(-c3ccc4c(c3)CCN4C(=O)Cc3ccccc3)c12
Reply | 22

Ask | For O=C(Nc1cccc(-c2nn3ccccc3c2-c2ccnc(Nc3cccc(C(F)(F)F)c3)n2)c1)c1c(F)cccc1F then?
Reply | 0

Ask | Another compound: O=C(Nc1n[nH]c2cc(-c3ccoc3)ccc12)C1CC1
Reply | 14

Others:
Ask | Which %Inh is reported with LIMK1 for this entry: CSc1cccc2c(-c3ccncn3)c(-c3ccc(F)cc3)nn12 ?
Reply | 11

Ask | Thanks! And c1ccc(Oc2ccc(Nc3ccnc4cc(-c5ccc(CNCCN6CCOCC6)o5)ccc34)cc2)nc1 ?
Reply | 0

Ask | Try the compound c1ccc(-c2n[nH]cc2Nc2ccnc3ccccc23)nc1
Reply | 0

Ask | Please give the result for COc1ccc(Nc2nccc(NCCNC(=O)c3cc4ccccc4s3)n2)cc1 too.
Reply | 0
